- system: ATP-dependent translocase ABCB1 (Homo sapiens, UniProt P08183)
- Sequence (P08183 whole entry): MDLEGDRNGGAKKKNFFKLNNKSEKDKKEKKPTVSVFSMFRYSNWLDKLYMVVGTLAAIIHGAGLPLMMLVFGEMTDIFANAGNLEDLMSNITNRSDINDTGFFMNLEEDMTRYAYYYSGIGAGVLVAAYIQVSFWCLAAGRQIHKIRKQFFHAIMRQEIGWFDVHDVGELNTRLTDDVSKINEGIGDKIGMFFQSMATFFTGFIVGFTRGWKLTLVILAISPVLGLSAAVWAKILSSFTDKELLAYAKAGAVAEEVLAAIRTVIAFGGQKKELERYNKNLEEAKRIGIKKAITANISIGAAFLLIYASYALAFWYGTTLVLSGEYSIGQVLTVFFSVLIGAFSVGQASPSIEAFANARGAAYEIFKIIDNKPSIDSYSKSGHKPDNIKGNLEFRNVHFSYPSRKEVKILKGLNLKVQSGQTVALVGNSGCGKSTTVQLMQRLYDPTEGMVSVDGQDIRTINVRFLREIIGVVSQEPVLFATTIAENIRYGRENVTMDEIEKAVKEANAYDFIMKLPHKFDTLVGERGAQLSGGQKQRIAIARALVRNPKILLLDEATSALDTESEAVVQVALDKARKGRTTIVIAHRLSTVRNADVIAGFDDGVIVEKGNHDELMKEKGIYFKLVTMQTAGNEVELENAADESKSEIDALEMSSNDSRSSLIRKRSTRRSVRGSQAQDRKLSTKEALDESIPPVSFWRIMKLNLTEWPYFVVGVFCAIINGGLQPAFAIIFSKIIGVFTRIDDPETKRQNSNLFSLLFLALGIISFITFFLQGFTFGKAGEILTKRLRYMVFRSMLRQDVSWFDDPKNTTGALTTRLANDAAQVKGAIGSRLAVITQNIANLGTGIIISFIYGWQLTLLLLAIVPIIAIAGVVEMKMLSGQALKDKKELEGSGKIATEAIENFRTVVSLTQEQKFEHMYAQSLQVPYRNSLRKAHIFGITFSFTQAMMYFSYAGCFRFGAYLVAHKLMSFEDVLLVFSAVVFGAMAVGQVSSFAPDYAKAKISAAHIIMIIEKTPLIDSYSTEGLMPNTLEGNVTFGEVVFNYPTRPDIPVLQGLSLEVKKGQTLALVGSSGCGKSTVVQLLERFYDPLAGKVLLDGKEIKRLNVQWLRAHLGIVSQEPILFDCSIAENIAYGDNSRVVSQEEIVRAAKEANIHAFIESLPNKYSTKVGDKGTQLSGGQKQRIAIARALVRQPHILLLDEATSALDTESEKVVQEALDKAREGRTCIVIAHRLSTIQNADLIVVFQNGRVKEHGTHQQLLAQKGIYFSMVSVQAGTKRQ
- procedure_details: Inhibition of P-gp in human K562/DOX cells assessed as drug level causing maximum increase in nuclear pirarubicin concentration incubated for 30 mins by spectroflurometry relative to control
- Format: cell-based
- condition_context: 0.5 h

[
  {
    "smiles_record": "COc1cc(/C=C/C(=O)OCCCN(C)CCCCCCCOC(=O)c2c3ccccc3cc3ccccc23)cc(OC)c1OC",
    "Alpha max": 0.88
  },
  {
    "smiles_record": "COc1cc(/C=C/C(=O)OCCCCCCN(C)CCCCOC(=O)c2c3ccccc3cc3ccccc23)cc(OC)c1OC",
    "Alpha max": 0.94
  },
  {
    "smiles_record": "COc1cc(/C=C/C(=O)OCCCCCCN(C)CCOC(=O)c2cc(OC)c(OC)c(OC)c2)cc(OC)c1OC",
    "Alpha max": 0.77
  },
  {
    "smiles_record": "COc1cc(/C=C/C(=O)OCCCCCCCN(C)CCOC(=O)c2cc(OC)c(OC)c(OC)c2)cc(OC)c1OC",
    "Alpha max": 0.99
  },
  {
    "smiles_record": "COc1cc(/C=C/C(=O)OCCCCCCN(C)CCCCOC(=O)c2cc(OC)c(OC)c(OC)c2)cc(OC)c1OC",
    "Alpha max": 0.99
  },
  {
    "smiles_record": "COc1cc(/C=C/C(=O)OCCCCCCN(C)CCCOC(=O)c2c3ccccc3cc3ccccc23)cc(OC)c1OC",
    "Alpha max": 0.99
  },
  {
    "smiles_record": "COc1cc(/C=C/C(=O)OCCN(C)CCCCCCCOC(=O)c2cc(OC)c(OC)c(OC)c2)cc(OC)c1OC",
    "Alpha max": 0.79
  },
  {
    "smiles_record": "COc1cc(/C=C/C(=O)OCCCN(C)CCCCCCOC(=O)c2cc(OC)c(OC)c(OC)c2)cc(OC)c1OC",
    "Alpha max": 0.99
  },
  {
    "smiles_record": "COc1cc(/C=C/C(=O)OCCCCN(C)CCCCCCOC(=O)c2c3ccccc3cc3ccccc23)cc(OC)c1OC",
    "Alpha max": 0.95
  },
  {
    "smiles_record": "COc1cc(/C=C/C(=O)OCCN(C)CCCCCCOC(=O)c2cc(OC)c(OC)c(OC)c2)cc(OC)c1OC",
    "Alpha max": 0.91
  },
  {
    "smiles_record": "COc1cc(/C=C/C(=O)OCCCCCCN(C)CCOC(=O)c2c3ccccc3cc3ccccc23)cc(OC)c1OC",
    "Alpha max": 0.94
  },
  {
    "smiles_record": "COc1cc(/C=C/C(=O)OCCN(C)CCCCCCCCOC(=O)c2c3ccccc3cc3ccccc23)cc(OC)c1OC",
    "Alpha max": 0.96
  },
  {
    "smiles_record": "COc1cc(/C=C/C(=O)OCCCCCCCN(C)CCCOC(=O)c2c3ccccc3cc3ccccc23)cc(OC)c1OC",
    "Alpha max": 0.93
  },
  {
    "smiles_record": "COc1cc(/C=C/C(=O)OCCN(C)CCCCCCOC(=O)c2c3ccccc3cc3ccccc23)cc(OC)c1OC",
    "Alpha max": 0.79
  },
  {
    "smiles_record": "COc1cc(/C=C/C(=O)OCCN(C)CCCCCCCOC(=O)c2c3ccccc3cc3ccccc23)cc(OC)c1OC",
    "Alpha max": 0.88
  },
  {
    "smiles_record": "COc1cc(/C=C/C(=O)OCCCCCN(C)CCCCOC(=O)c2c3ccccc3cc3ccccc23)cc(OC)c1OC",
    "Alpha max": 0.99
  },
  {
    "smiles_record": "COc1cc(/C=C/C(=O)OCCCCCN(C)CCCCOC(=O)c2cc(OC)c(OC)c(OC)c2)cc(OC)c1OC",
    "Alpha max": 0.94
  },
  {
    "smiles_record": "COc1cc(/C=C/C(=O)OCCCCN(C)CCCCCOC(=O)c2c3ccccc3cc3ccccc23)cc(OC)c1OC",
    "Alpha max": 0.94
  },
  {
    "smiles_record": "COc1cc(/C=C/C(=O)OCCCCCCCN(C)CCOC(=O)c2c3ccccc3cc3ccccc23)cc(OC)c1OC",
    "Alpha max": 0.98
  },
  {
    "smiles_record": "COc1cc(/C=C/C(=O)OCCN(C)CCCCCCCCOC(=O)c2cc(OC)c(OC)c(OC)c2)cc(OC)c1OC",
    "Alpha max": 0.91
  },
  {
    "smiles_record": "COc1cc(/C=C/C(=O)OCCCCN(C)CCCCCCOC(=O)c2cc(OC)c(OC)c(OC)c2)cc(OC)c1OC",
    "Alpha max": 0.99
  },
  {
    "smiles_record": "COc1cc(/C=C/C(=O)OCCCCCCN(C)CCCOC(=O)c2cc(OC)c(OC)c(OC)c2)cc(OC)c1OC",
    "Alpha max": 0.9
  },
  {
    "smiles_record": "COc1cc(/C=C/C(=O)OCCCCCCCCN(C)CCOC(=O)c2c3ccccc3cc3ccccc23)cc(OC)c1OC",
    "Alpha max": 0.99
  },
  {
    "smiles_record": "COc1cc(/C=C/C(=O)OCCCCCCCCN(C)CCOC(=O)c2cc(OC)c(OC)c(OC)c2)cc(OC)c1OC",
    "Alpha max": 0.93
  },
  {
    "smiles_record": "COc1cc(/C=C/C(=O)OCCCN(C)CCCCCCCOC(=O)c2cc(OC)c(OC)c(OC)c2)cc(OC)c1OC",
    "Alpha max": 0.97
  },
  {
    "smiles_record": "COc1cc(/C=C/C(=O)OCCCCCCCN(C)CCCOC(=O)c2cc(OC)c(OC)c(OC)c2)cc(OC)c1OC",
    "Alpha max": 0.99
  },
  {
    "smiles_record": "COc1cc(/C=C/C(=O)OCCCN(C)CCCCCCOC(=O)c2c3ccccc3cc3ccccc23)cc(OC)c1OC",
    "Alpha max": 0.92
  },
  {
    "smiles_record": "COc1cc(/C=C/C(=O)OCCCCN(C)CCCCCOC(=O)c2cc(OC)c(OC)c(OC)c2)cc(OC)c1OC",
    "Alpha max": 0.99
  }
]

Values from ChEMBL document CHEMBL4393665
